TEST DETAILS: Saturated solubility of tiotropium bromide in propellants (content assay after filtration)
Format: physicochemical
CONDITIONS: HFA-152a propellant, organic solvent or mixture, thermodynamic from solid; saturated solution in HFA-152a alone; read-out: Mean TB solubility
REPORTED ENDPOINT: solubility (µg/mL)

1) C[N+]1(C)[C@@H]2C[C@@H](OC(=O)C(O)(c3cccs3)c3cccs3)C[C@H]1[C@@H]1O[C@@H]12 [TB, tiotropium bromide] ... 0.5
